- Tested on: VchCAST RNA-guided transposition machinery (E. coli BL21(DE3) host, lacZ target)
- METHOD SUMMARY: relative integration efficiency (T-LR orientation) vs wild-type transposon end (log2 (normalized fold change)); transposon end mutated: right end (5 bp flank + 75 bp right end); higher = more efficient transposition
Class 1.0: relative integration efficiency (log2) at least -0.4. Class 0.0: relative integration efficiency (log2) below -0.4.

Determine whether this sequence has relative integration efficiency (log2) no lower than -0.4: `ACATTTGTTCATACAACCATAAAATGATAATTACACCCATAAATGGATAATTATCACACCCAATTTAACTATAACGCTCTGATCATAGTCAGACCAACATTGCTACGACCCGTATTCGCACCGACAC`
0.0

Determine whether this sequence has relative integration efficiency (log2) no lower than -0.4: `ACATTTGTTGATACAACCATAAAATGATAATTACACCCATAAATTGATAATTATCCACAAACGCCCGGTCGCGGTAAGAGGATCATAGTCAGACCAACATTGCTACGACCCGTATTCGCACCGACAC`
1.0

Determine whether this sequence has relative integration efficiency (log2) no lower than -0.4: `ACATTTGTTGATACAACCATAAAATGATCCGGACACCCATAAATTGATAATTATCACACCCATAAATTGATATTGCCTCTGATCATAGTCAGACCAACATTGCTACGACCCGTATTCGCACCGACAC`
0.0

Determine whether this sequence has relative integration efficiency (log2) no lower than -0.4: `ACATTTGTTGATACACCCATAAATTGATATTGCCAACCATATATTGATATCTCTCACACCCATAAATTGATATTGCCTCTGATCATAGTCAGACCAACATTGCTACGACCCGTATTCGCACCGACAC`
0.0

Determine whether this sequence has relative integration efficiency (log2) no lower than -0.4: `ACATTTGTTGATACAACCATAAAATGATAATTAATAACACCCATAAATTGATAATTATCACACCCATAAATTGATATTGCCTCTGATCATAGTCAGACCAACATTGCTACGACCCGTATTCGCACCG`
1.0

###

Listed next: entries and their corresponding relative integration efficiency (log2).
- System: VchCAST RNA-guided transposition machinery (E. coli BL21(DE3) host, lacZ target)
- METHOD SUMMARY: relative integration efficiency (T-RL orientation) vs wild-type transposon end (log2 (normalized fold change)); transposon end mutated: right end (5 bp flank + 75 bp right end); higher = more efficient transposition

Example entries and their recorded answers appear below.
{"columns": ["SEQUENCE CODE", "relative integration efficiency (log2)"],
 "data": [
  ["ACATTTGTTGATACAACCATAAAATGATAATTACACCCATAAATTGATAATTATCACACCCATAAATTGATATTGCCTCTGATCAACCATAAAATGATAATTACATAGTCAGACCAAGCACCGACAC", 0.875],
  ["ACATTTGTTGATACAACCATAAAATGATAATTACACCCATAAATTGAGCCGGCGACACAAACGCCCGGTCGCGGTAAGAGGATCATAGTCAGACCAACATTGCTACGACCCGTATTCGCACCGACAC", -1.02],
  ["ACATTTGTTGATACACCCATAAATTGATAATTACACCCATAAATTGATAATTATCACAACCATAAAGTGATATTTACTCTGATCATAGTCAGACCAACATTGCTACGACCCGTATTCGCACCGACAC", -0.445],
  ["ACATTTGTTGATACAACCATAAAATGATAATTACACCCATAAATTGATAATTATCACACCCATAAATGTCGCGGTAAGAGGATCATAGTCAGACCAACATTGCTACGACCCGTATTCGCACCGACAC", -0.671],
  ["ACATTAGTCGATACAACCATAAAATGATAATTACACCCATAAATTCATCATTATCACACCCAATTTAACTATAACGCTCTGATCATAGTCAGACCAACATTGCTACGACCCGTATTCGCACCGACAC", -7.32],
  ["ACATTTGTTGATACAACCATAAAATGATAATTACACCCATAAATTGATAATTGTGACACCGAATTTAACTATAACGCTCTGATCATAGTCAGACCAACATTGCTACGACCCGTATTCGCACCGACAC", -0.766],
  ["ACATTTGTTCATACAACCATAAAATGATAATTCACCCATCAATTGATAATTATCACACCCCAATTTAACTATAACGCTCTGATCATAGTCAGACCAACATTGCTACGACCCGTATTCGCACCGACAC", -4.48],
  ["ACATTTGTTGATACTACCATTTAATGATAATAACACCCATAAAATGATAATTATCACACCCAATTTAACTATAACGCTCTGATCATAGTCAGACCAACATTGCTACGACCCGTATTCGCACCGACAC", -1.01],
  ["ACATTTGTTGATACAACCAATAAATGATAATTACACCCATAAATTGATAATAATGACACCGAATTTAACTATAACGCTCTGATCATAGTCAGACCAACATTGCTACGACCCGTATTCGCACCGACAC", -1.44]
]}

Now for another entry.
Suppose we examine the sequence `ACATTTGTTCATACAACCATAAAACGATAATTACACCCATAAATTGATCATTATCACACCCAATTTAACTATAACGCTCTGATCATAGTCAGACCAACATTGCTACGACCCGTATTCGCACCGACAC` ; what relative integration efficiency (log2) value has been reported?
-2.19

###

- Tested on: VchCAST RNA-guided transposition machinery (E. coli BL21(DE3) host, lacZ target)
- METHOD SUMMARY: relative integration efficiency (T-LR orientation) vs wild-type transposon end (log2 (normalized fold change)); transposon end mutated: left end; higher = more efficient transposition
MEASURED QUANTITY: relative integration efficiency (log2)

Example entries and their recorded answers appear below.
{"columns": ["SEQUENCE CODE", "EXPERIMENTAL TARGET", "MEASURED QUANTITY", "MEASUREMENT"],
 "data": [
  ["AATGTTGTTGATGCAACCATAAAGTGATATTTAATAATTATTTATAATCAGCAACTTAACCACAAAACAACCATATATTGATATCTCAACCCCACCAACGCCTGGTCGCGGGGGTGTCCGATCTGATTTCAGCAAAACTACTGCAGTAAGAA", "VchCAST RNA-guided transposition machinery (E. coli BL21(DE3) host, lacZ target)", "relative integration efficiency (log2)", -0.776],
  ["AATGTTGTTGATGCAACCATAAAGTGATATTTAATAATTATTTATAATCAGCAACTTAACCACAAACAACCATATATTGATATCTCAACAAAACAACCATAAGTTGATATTTTTGTGAATCGAGTATTTCAGCAAAACTACTGCAGTAAGAA", "VchCAST RNA-guided transposition machinery (E. coli BL21(DE3) host, lacZ target)", "relative integration efficiency (log2)", -1.17],
  ["AATGTTGTTGATGCAACCATAAAGTGATATTTACGAATCAATTAAAATCATAGGCTTAATCGAAAAACAACCATATATTGATATCTCATAAAACAACCATAAGTTGATATTTTGGTGAAAAGGATATTCCAACCTTCATAGTTTAGTAAGAA", "VchCAST RNA-guided transposition machinery (E. coli BL21(DE3) host, lacZ target)", "relative integration efficiency (log2)", 0.612]
]}

Suppose we examine the sequence `AATGTTGTTGATGCAACCATAAAGTGATATTTAAAGTACAGCGCGACTGAACTCATCATTAAAACGACAACCATATATTGATATCTCACAAAACAACCATAAGTTGATATTTTTGTGAATCGAGTATTTCAGCAAAACTACTGCAGTAAGAA` ; what relative integration efficiency (log2) value has been reported?
-0.487

###

- System: VchCAST RNA-guided transposition machinery (E. coli BL21(DE3) host, lacZ target)
- METHOD SUMMARY: relative integration efficiency (T-RL orientation) vs wild-type transposon end (log2 (normalized fold change)); transposon end mutated: right end (5 bp flank + 75 bp right end); higher = more efficient transposition
Listed next: entries and their corresponding relative integration efficiency (log2).
Just the number, please.

Example entries and their recorded answers appear below.
{"columns": ["SEQUENCE CODE", "EXPERIMENTAL TARGET", "MEASUREMENT"],
 "data": [
  ["ACATTTGTTGATACACCCATAAATTGATAATTACACCCATAAATTGATAATTATCAGTGGGTATTTAACTATAACGCTCTGATCATAGTCAGACCAACATTGCTACGACCCGTATTCGCACCGACAC", "VchCAST RNA-guided transposition machinery (E. coli BL21(DE3) host, lacZ target)", -0.394],
  ["ACATTTGTTGATACAACCATAAAATGATAATTAACAAACGCCCGGTCGCCGGCTCACACCCATAAATTGATATTGCCTCTGATCATAGTCAGACCAACATTGCTACGACCCGTATTCGCACCGACAC", "VchCAST RNA-guided transposition machinery (E. coli BL21(DE3) host, lacZ target)", -3.28],
  ["ACATTGGTTGATACAACCATAAAATGATAATTACACCCATAAATTCATAATTATCACACCCAATTTAACTATAACGCTCTGATCATAGTCAGACCAACATTGCTACGACCCGTATTCGCACCGACAC", "VchCAST RNA-guided transposition machinery (E. coli BL21(DE3) host, lacZ target)", -6.39],
  ["ACATTTGTTGATACAACCATAAAATGATAATTACACCCATAAATTGATAATTATCACACCCATAAATTGATATTGCCTCTGATCATAGTCACAACCATAAAATGATAATTAGACCAAGCACCGACAC", "VchCAST RNA-guided transposition machinery (E. coli BL21(DE3) host, lacZ target)", -0.196]
]}

Suppose we examine the sequence `ACATTTGTTGATACAACCATATAATGATAATAACACCAATAAAATGATAATTATCACACCCAATTTAACTATAACGCTCTGATCATAGTCAGACCAACATTGCTACGACCCGTATTCGCACCGACAC` ; what relative integration efficiency (log2) value has been reported?
-1.09

Provenance of the data: the supplement of paper PMC10201428
